The values you see were collected from paper PMC7892954.

- Measurement description: DDI study: pharmacokinetics of fedratinib in rats with or without antifungal drugs
- Type: in vivo, Sprague-Dawley (SD) rats
- Experimental conditions: male, Sprague-Dawley, rat, plasma, po, 40 mg/kg, 40 mg/kg fedratinib oral gavage, Group C: 20 mg/kg posaconazole 30 min before, n = 6, Mean ± SD, read-out: CLz/F (converted)

Smiles code: Cc1cnc(Nc2ccc(OCCN3CCCC3)cc2)nc1Nc1cccc(S(=O)(=O)NC(C)(C)C)c1
CL/F [mL/min/kg]: 277

---

- Measurement description: DDI study: pharmacokinetics of fedratinib in rats with or without antifungal drugs
- Format: in vivo, Sprague-Dawley (SD) rats
- Experimental conditions: male, Sprague-Dawley, rat, plasma, po, 40 mg/kg, 40 mg/kg fedratinib oral gavage, Group E: 20 mg/kg itraconazole 30 min before, n = 6, Mean ± SD
Assay endpoint: AUC(0-t) (ng·h/mL)

Smiles code: Cc1cnc(Nc2ccc(OCCN3CCCC3)cc2)nc1Nc1cccc(S(=O)(=O)NC(C)(C)C)c1
Assay endpoint: AUC(0-t)
Quantitative readout: 3130

---

- Measurement description: DDI study: pharmacokinetics of fedratinib in rats with or without antifungal drugs
- Assay type: in vivo, Sprague-Dawley (SD) rats
- Experimental conditions: male, Sprague-Dawley, rat, plasma, po, 40 mg/kg, 40 mg/kg fedratinib oral gavage, Group B: 20 mg/kg isavuconazole 30 min before, n = 6, Mean ± SD, read-out: MRT0→∞

Smiles code: Cc1cnc(Nc2ccc(OCCN3CCCC3)cc2)nc1Nc1cccc(S(=O)(=O)NC(C)(C)C)c1
MRT inf: 15.5 h

---

- Measurement description: DDI study: pharmacokinetics of fedratinib in rats with or without antifungal drugs
- Assay type: in vivo, Sprague-Dawley (SD) rats
- Experimental conditions: male, Sprague-Dawley, rat, plasma, po, 40 mg/kg, 40 mg/kg fedratinib oral gavage, Group D: 20 mg/kg fluconazole 30 min before, n = 6, Mean ± SD, read-out: MRT0→∞

Molecule: Cc1cnc(Nc2ccc(OCCN3CCCC3)cc2)nc1Nc1cccc(S(=O)(=O)NC(C)(C)C)c1 [Fedratinib]
MRT inf: 13.9 h

---

- Measurement description: DDI study: pharmacokinetics of fedratinib in rats with or without antifungal drugs
- Assay type: in vivo, Sprague-Dawley (SD) rats
- Experimental conditions: male, Sprague-Dawley, rat, plasma, po, 40 mg/kg, 40 mg/kg fedratinib oral gavage, Group E: 20 mg/kg itraconazole 30 min before, n = 6, Mean ± SD, read-out: MRT0→t
- Description: The UPLC-MS/MS procedures were developed and validated to detect fedratinib concentration in plasma to support an investigational study in healthy male Sprague-Dawley (SD) rats (weighing 200 ± 20 g), which were purchased from Laboratory Animal Center of Wenzhou Medical University (Wenzhou, China). The protocols and procedures of the animal experiment were checked in accordance with the regulations defined by Wenzhou Medical University Animal Care and Use Committee (wydw 2018-0002). […]

Smiles code: Cc1cnc(Nc2ccc(OCCN3CCCC3)cc2)nc1Nc1cccc(S(=O)(=O)NC(C)(C)C)c1
MRT last (h): 14.5

---

- Measurement description: DDI study: pharmacokinetics of fedratinib in rats with or without antifungal drugs
- Assay type: in vivo, Sprague-Dawley (SD) rats
- Experimental conditions: male, Sprague-Dawley, rat, plasma, po, 40 mg/kg, 40 mg/kg fedratinib oral gavage, Group D: 20 mg/kg fluconazole 30 min before, n = 6, Mean ± SD
Assay endpoint: half-life

Smiles code: Cc1cnc(Nc2ccc(OCCN3CCCC3)cc2)nc1Nc1cccc(S(=O)(=O)NC(C)(C)C)c1
Result: 10.9 h
